# Measurement Target: human M2 receptor (Homo sapiens, UniProt P08172)
# Sequence (P08172 whole entry): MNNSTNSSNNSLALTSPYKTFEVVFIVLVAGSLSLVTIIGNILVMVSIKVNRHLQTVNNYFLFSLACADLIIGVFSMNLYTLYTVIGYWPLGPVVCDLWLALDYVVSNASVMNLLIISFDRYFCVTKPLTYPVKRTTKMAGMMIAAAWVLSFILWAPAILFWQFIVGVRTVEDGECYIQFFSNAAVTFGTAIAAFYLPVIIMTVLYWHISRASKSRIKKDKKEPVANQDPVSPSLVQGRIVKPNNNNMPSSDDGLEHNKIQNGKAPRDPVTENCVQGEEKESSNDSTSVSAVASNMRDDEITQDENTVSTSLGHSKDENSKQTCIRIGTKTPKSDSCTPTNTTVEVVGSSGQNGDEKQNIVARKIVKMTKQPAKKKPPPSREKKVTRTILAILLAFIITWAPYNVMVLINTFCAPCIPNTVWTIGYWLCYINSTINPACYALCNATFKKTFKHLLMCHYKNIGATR
# Condition Notes: Receptor activity EC50, M2-GIRK1/4 activation test, acetylcholine at EC20; allosteric potency; in some cases mean values from two or more determinations
Task for the reader: assign each of the following compounds its reported EC50.
Kindly provide the numeric value in nM only, without the unit symbol.

Q) Output measured EC50 for this item: O=C(NC(c1c(F)cccc1F)C(F)(F)F)c1cn(-c2ccc(F)cc2F)c2nc(N3CC[C@@H](O)C3=O)ccc2c1=O (stereo partly shown)
A) 54

Q) Output measured EC50 for this item: `O=C(NC12CC3CC(CC(C3)C1)C2)c1cn(-c2ccc(F)cc2F)c2nc(N3CCC(O)(CO)CC3)ccc2c1=O`
A) 59

Q) Output measured EC50 for this item: C[C@H](NC(=O)c1cn(-c2c(F)cc(F)cc2F)c2nc(N3CC4CC4(O)C3)ccc2c1=O)C(F)(F)F (mixture of isomers) [Example 316]
A) 28

Q) Output measured EC50 for this item: C[C@H](NC(=O)c1cn(-c2c(F)cccc2F)c2nc(N3CC4CC4(O)C3)ccc2c1=O)C(F)(F)F (single isomer, unassigned) [Example 312]
A) 72

Q) Output measured EC50 for this item: `CN(CCF)c1ccc2c(=O)c(C(=O)NC34CC5CC(CC(C5)C3)C4)cn(-c3ccc(F)cc3F)c2n1`
A) 26

Q) Output measured EC50 for this item: `O=C(NC12CC(C1)C2)c1cn(-c2c(F)cc(F)cc2F)c2nc(N3C[C@@H](O)[C@H](O)C3)ccc2c1=O`
A) 35

Q) Output measured EC50 for this item: CC[C@@H](NC(=O)c1cn(-c2ccc(F)cc2F)c2nc(N3CC(C)CC3=O)ccc2c1=O)C(F)(F)F (mixture of isomers) [Example 301]
A) 30

Q) Output measured EC50 for this item: CC[C@@H](NC(=O)c1cn(-c2ccc(F)cc2F)c2nc(N3CC(C)CC3=O)ccc2c1=O)C(F)(F)F (single isomer, unassigned) [Example 302]
A) 17

Q) Output measured EC50 for this item: `O=C(NC12CC3CC(CC(C3)C1)C2)c1cn(-c2ccc(F)cc2F)c2nc(N3CC(F)(F)CCC3=O)ccc2c1=O`
A) 30

Q) Output measured EC50 for this item: CC(C)CC(NC(=O)c1cn(-c2ccc(F)cc2F)c2nc(N(C)CCF)ccc2c1=O)C(F)(F)F (racemic)
A) 57

Q) Output measured EC50 for this item: CC(NC(=O)c1cn(-c2ccc(F)cc2F)c2nc(N3C[C@@H](O)CC3=O)ccc2c1=O)c1ccccc1F (stereo partly shown)
A) 207

Q) Output measured EC50 for this item: `CN(CCF)c1ccc2c(=O)c(C(=O)NC3(C(F)(F)F)CC3)cn(-c3ccc(F)cc3F)c2n1`
A) 187

Q) Output measured EC50 for this item: `C[C@@H](O)CNc1ccc2c(=O)c(C(=O)N[C@@H](C3CC3)C(F)(F)F)cn(-c3c(F)cc(F)cc3F)c2n1`
A) 81

* * *

# Measurement Target: human M2 receptor (Homo sapiens)
# Condition Notes: read-out: Efficiency, boosting of the acetylcholine effect at EC20 acetylcholine concentration; M2-GIRK1/4 reporter cells
Value Type: Emax (%)
Kindly provide the numeric value in % only, without the unit symbol.

Q) Output measured Emax for this item: `O=C(NC(C(F)(F)F)C(F)(F)F)c1cn(-c2c(F)cc(F)cc2F)c2nc(N3CCNC3=O)ccc2c1=O`
A) 90

Q) Output measured Emax for this item: CC[C@@H](COC(F)(F)F)NC(=O)c1cn(-c2c(F)cc(F)cc2F)c2nc(N3C[C@@H](C)NC3=O)ccc2c1=O (single isomer, unassigned)
A) 100

Q) Output measured Emax for this item: O=C(NC(c1ccccc1Cl)C(F)(F)F)c1cn(-c2c(F)cc(F)cc2F)c2nc(N3CCNC3=O)ccc2c1=O (racemic) [Example 563]
A) 100
